molecular target: Mu-type opioid receptor (Homo sapiens, UniProt P35372); experiment: GPCRScan assay: inhibition of MOR; design: radioligand conc. used [nm] 1.0 – 2.0, parental cells stable HEK; details: read-out: Ki
Sequence (P35372 whole entry): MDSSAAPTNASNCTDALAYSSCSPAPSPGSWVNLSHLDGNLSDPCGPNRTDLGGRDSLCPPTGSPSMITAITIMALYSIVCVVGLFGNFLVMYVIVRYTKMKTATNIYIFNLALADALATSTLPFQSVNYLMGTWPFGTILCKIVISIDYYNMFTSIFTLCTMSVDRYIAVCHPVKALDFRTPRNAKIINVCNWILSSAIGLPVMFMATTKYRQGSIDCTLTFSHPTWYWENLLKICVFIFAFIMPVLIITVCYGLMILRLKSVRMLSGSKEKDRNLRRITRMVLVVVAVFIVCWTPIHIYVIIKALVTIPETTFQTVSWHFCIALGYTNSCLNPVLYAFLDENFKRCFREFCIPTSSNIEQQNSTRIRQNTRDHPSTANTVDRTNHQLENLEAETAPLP
Measured Parameter: pKi
Scale explanation: pKi corresponds to minus log10 of a concentration expressed in moles per litre.

Data request: Could you tell me which pKi is on file for "CCC[C@@H]1CNCc2c1[nH]c(=O)c(C#N)c2N1CCC2(CC1)CC2" ?
Data returned: 5.33

====

molecular target: UniProtKB P27338; test: Monoamine Oxidase MAO-B Eurofins Panlabs panel; conditions: compound concentration 10 uM
Sequence (P27338 whole entry): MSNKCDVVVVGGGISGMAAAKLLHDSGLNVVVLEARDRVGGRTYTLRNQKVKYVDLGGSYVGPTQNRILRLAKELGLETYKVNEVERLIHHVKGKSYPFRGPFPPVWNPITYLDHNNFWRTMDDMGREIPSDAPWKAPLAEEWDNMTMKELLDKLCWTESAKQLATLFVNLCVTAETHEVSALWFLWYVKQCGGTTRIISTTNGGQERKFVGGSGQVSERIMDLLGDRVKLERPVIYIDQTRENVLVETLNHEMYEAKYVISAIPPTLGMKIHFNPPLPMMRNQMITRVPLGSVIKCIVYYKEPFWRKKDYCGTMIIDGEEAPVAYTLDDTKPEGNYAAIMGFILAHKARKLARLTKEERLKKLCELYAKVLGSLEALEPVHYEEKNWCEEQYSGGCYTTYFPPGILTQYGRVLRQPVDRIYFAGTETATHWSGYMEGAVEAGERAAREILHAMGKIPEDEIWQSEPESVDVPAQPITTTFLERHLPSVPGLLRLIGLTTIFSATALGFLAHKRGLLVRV
Measured Parameter: inhibition at 10 µM (%)
# unit: % | format: bare number

Data request: Could you tell me which inhibition at 10 µM is on file for "CCC[C@H]1CNCc2c1[nH]c(=O)c(C#N)c2N1CCC2(CC1)CC2" ?
Data returned: 2
